Recorded CL/F for the following compounds
# measurement.protocol: Plasma clearance in Sprague-Dawley rat at 4 mg/kg, po
# Format: ADME, organism-based
# Set-up: dose 4 mg/kg, route oral
# test.context: Sprague-Dawley, plasma
Field note: include the unit after the figure.

Below, 2 compounds whose answers are already recorded.
[ask] Consider the compound `C=C[C@@H]1C[C@]1(NC(=O)[C@@H]1C[C@@H]2CN1C(=O)[C@H]([C@@H](C)CC)Nc1nc(cs1)CCC/C=C/c1cccc3c1CN(C3)C(=O)O2)C(=O)NS(=O)(=O)C1CC1.O=C(O)C(F)(F)F` and give its measured CL/F.
[reply] 17 mL/min/kg

[ask] Would you mind telling me what CL/F value was observed for CCC1C[C@]1(NC(=O)[C@@H]1C[C@@H]2CN1C(=O)[C@H](C1CCCCC1)Nc1nc(cs1)CCC/C=C/c1cccc3c1CN(C3)C(=O)O2)C(=O)NS(=O)(=O)C1CC1.O=C(O)C(F)(F)F (single isomer, unassigned) ?
[reply] 56 mL/min/kg

Continuing:
[ask] Which measured CL/F value corresponds to `C=C[C@@H]1C[C@]1(NC(=O)[C@@H]1C[C@@H]2CN1C(=O)[C@H](C1CCCC1)Nc1nc(cs1)CCC/C=C/c1cccc3c1CN(C3)C(=O)O2)C(=O)NS(=O)(=O)C1CC1.O=C(O)C(F)(F)F` ?
[reply] 25 mL/min/kg

###

# measurement.protocol: Oral bioavailability in Sprague-Dawley rat at 5 mg/kg
# Assay type: ADME, organism-based
# test.context: in vivo
Parameter: bioavailability. Scope: all listed entries.
Supply the numeric figure in %, leaving out any unit text.

Some solved entries appear below for comparison.
[ask] Which value of bioavailability has been reported for `C=C[C@@H]1C[C@]1(NC(=O)[C@@H]1C[C@@H]2CN1C(=O)[C@H](C(C)(C)C)Nc1nc(cs1)CCCCCc1cccc3c1CN(C3)C(=O)O2)C(=O)NS(=O)(=O)C1CC1.O=C(O)C(F)(F)F` in the records?
[reply] 5

[ask] What value of measured bioavailability is listed for `C=C[C@@H]1C[C@]1(NC(=O)[C@@H]1C[C@@H]2CN1C(=O)[C@H](C(C)C)Nc1nc(cs1)CCC/C=C/c1cccc3c1CN(C3)C(=O)O2)C(=O)NS(=O)(=O)C1CC1.O=C(O)C(F)(F)F` ?
[reply] 8

[ask] Give the measured bioavailability of `C=C[C@@H]1C[C@]1(NC(=O)[C@@H]1C[C@@H]2CN1C(=O)[C@H]([C@@H](C)CC)Nc1nc(cs1)CCC/C=C/c1cccc3c1CN(C3)C(=O)O2)C(=O)[N-]S(=O)(=O)C1CC1.[K+]` .
[reply] 26

In the following, a different compound is considered.
[ask] # query: bioavailability of entry `C=C[C@@H]1C[C@]1(NC(=O)[C@@H]1C[C@@H]2CN1C(=O)[C@H](C(C)C)Nc1nc(cs1)CCCCc1ccc3ccnc(c3c1)O2)C(=O)NS(=O)(=O)C1CC1.O=C(O)C(F)(F)F`
[reply] 60

###

# measurement.protocol: AUC (0 to 4 hrs) in Sprague-Dawley rat at 5 mg/kg, po
# Format: ADME, organism-based, Plasma
# Parameters: time < 4 hr, dose 5 mg/kg, route oral
# test.context: Sprague-Dawley, plasma
property.label: AUC(0-t) at 4 h (µM·h)
Quick note: give the figure in µM·h, leave out the unit.

Examples with their reported AUC(0-t) at 4 h follow.
[ask] Which AUC(0-t) at 4 h value belongs to `C=C[C@@H]1C[C@]1(NC(=O)[C@@H]1C[C@@H]2CN1C(=O)[C@H](C(C)C)Nc1nc(cs1)CCCCc1ccc3ccnc(c3c1)O2)C(=O)NS(=O)(=O)C1CC1.O=C(O)C(F)(F)F` ?
[reply] 9.9

[ask] Need AUC(0-t) at 4 h, item `C=C[C@@H]1C[C@]1(NC(=O)[C@@H]1C[C@@H]2CN1C(=O)[C@H](C(C)C)Nc1nc(cs1)C(C)(C)CCCc1ccc3ccnc(c3c1)O2)C(=O)NS(=O)(=O)C1CC1.O=C(O)C(F)(F)F`
[reply] 0.8

New cases:
[ask] Reported AUC(0-t) at 4 h, molecule `C=C[C@@H]1C[C@]1(NC(=O)[C@@H]1C[C@@H]2CN1C(=O)[C@H](C1CCCCC1)Nc1nc(cs1)CCCCc1ccc3ccnc(c3c1)O2)C(=O)NS(=O)(=O)C1CC1.O=C(O)C(F)(F)F` : ____
[reply] 4.7

[ask] Return reported AUC(0-t) at 4 h; argument: `C=C[C@@H]1C[C@]1(NC(=O)[C@@H]1C[C@@H]2CN1C(=O)[C@H](C(C)(C)C)Nc1nc(cs1)CCCCc1ccc3ccnc(c3c1)O2)C(=O)NS(=O)(=O)C1CC1.O=C(O)C(F)(F)F`
[reply] 0.1

[ask] Quick one: AUC(0-t) at 4 h of `C=C[C@@H]1C[C@]1(NC(=O)[C@@H]1C[C@@H]2CN1C(=O)[C@H](C(C)(C)C)NC(=O)OCCCCCc1ccc3ccnc(c3c1)O2)C(=O)NS(=O)(=O)C1CC1` ?
[reply] 0.27

[ask] Return reported AUC(0-t) at 4 h; argument: `C=C[C@@H]1C[C@]1(NC(=O)[C@@H]1C[C@@H]2CN1C(=O)[C@H](C(C)C)NC1=NN=C(CCCCc3ccc4ccnc(c4c3)O2)O1)C(=O)NS(=O)(=O)C1CC1`
[reply] 0.1

[ask] Look at this molecule and give its reported AUC(0-t) at 4 h. `C=C[C@@H]1C[C@]1(NC(=O)[C@@H]1C[C@@H]2CN1C(=O)[C@H](C(C)C)Nc1nc(cs1)CC/C=C/c1ccc3ccnc(c3c1)O2)C(=O)NS(=O)(=O)C1CC1.O=C(O)C(F)(F)F`
[reply] 0.9

###

# measurement.protocol: AUC in Beagle dog at 10 mg/kg, po
# Assay type: ADME, organism-based, Canis lupus familiaris
# Parameters: dose 10 mg/kg, route oral
# test.context: plasma
property.label: AUC (µM·h)
Report only the number, with the unit µM·h understood.

[ask] Quick check: AUC of `C=C[C@@H]1C[C@]1(NC(=O)[C@@H]1C[C@@H]2CN1C(=O)[C@H]([C@@H](C)CC)Nc1nc(cs1)CCC/C=C/c1cccc3c1CN(C3)C(=O)O2)C(=O)[N-]S(=O)(=O)C1CC1.[K+]` ?
[reply] 10

###

# measurement.protocol: Oral bioavailability in Sprague-Dawley rat at 4 mg/kg
# Assay type: ADME, organism-based
# test.context: in vivo
We begin with a simple list: items and their reported bioavailability.
Output spec: scalar in %, unitless text.

Would you please look over these solved cases?
[ask] I'd like to know its bioavailability. The molecule in question is `C=C[C@@H]1C[C@]1(NC(=O)[C@@H]1C[C@@H]2CN1C(=O)[C@H](C1CCCC1)Nc1nc(cs1)CCC/C=C/c1cccc3c1CN(C3)C(=O)O2)C(=O)NS(=O)(=O)C1CC1.O=C(O)C(F)(F)F`
[reply] 36

[ask] I would be grateful if you could share the reported bioavailability for `C=C[C@@H]1C[C@]1(NC(=O)[C@@H]1C[C@@H]2CN1C(=O)[C@H]([C@@H](C)CC)Nc1nc(cs1)CCC/C=C/c1cccc3c1CN(C3)C(=O)O2)C(=O)NS(=O)(=O)C1CC1.O=C(O)C(F)(F)F` .
[reply] 13

[ask] Look up bioavailability: `C=C[C@@H]1C[C@]1(NC(=O)[C@@H]1C[C@@H]2CN1C(=O)[C@H](C(C)(C)C)Nc1nc(cs1)CCC/C=C/c1cccc3c1CN(C3)C(=O)O2)C(=O)NS(=O)(=O)C1CC1.O=C(O)C(F)(F)F`
[reply] 6

Continuing:
[ask] Which bioavailability is listed for `C=C[C@@H]1C[C@]1(NC(=O)[C@@H]1C[C@@H]2CN1C(=O)[C@H](C1CCCCC1)Nc1nc(cs1)CCC/C=C/c1cccc3c1CN(C3)C(=O)O2)C(=O)NS(=O)(=O)C1CC1.O=C(O)C(F)(F)F` ?
[reply] 8

###

# measurement.protocol: Cmax in Sprague-Dawley rat at 4 mg/kg, iv
# Type: ADME, organism-based
# Set-up: dose 4 mg/kg, route intravenous
# test.context: in vivo
property.label: Cmax (nM)
Report as a plain number; the unit nM is understood.

[ask] // lookup Cmax for `C=C[C@@H]1C[C@]1(NC(=O)[C@@H]1C[C@@H]2CN1C(=O)[C@H]([C@@H](C)CC)Nc1nc(cs1)CCC/C=C/c1cccc3c1CN(C3)C(=O)O2)C(=O)NS(=O)(=O)C1CC1.O=C(O)C(F)(F)F`
[reply] 400

###

# measurement.protocol: Cmax in Beagle dog at 10 mg/kg, po
# Format: ADME, organism-based, Canis lupus familiaris
# Parameters: dose 10 mg/kg, route oral
# test.context: in vivo
property.label: Cmax (µM)
Your answer is read as µM, so omit the unit and give the number.

[ask] Reported Cmax for `C=C[C@@H]1C[C@]1(NC(=O)[C@@H]1C[C@@H]2CN1C(=O)[C@H]([C@@H](C)CC)Nc1nc(cs1)CCC/C=C/c1cccc3c1CN(C3)C(=O)O2)C(=O)[N-]S(=O)(=O)C1CC1.[K+]` : what is it?
[reply] 4
